The measurements presented in this section are drawn from the supplement of paper PMC9844399.

Reported nuclear count per well values are given for each entry in this list.
- System: HeLa
- measurement_notes: nuclear count per well, robust Z-score vs DMSO; higher = more cells (less toxicity)
- cond: 10 µM; 6 h
Structures can show the parent of a compound that is named as a salt.
observation_type: nuclear count per well

- molecule: "Oc1ncnc2[nH]ncc12"
  observation_type: "nuclear count per well"
  result_number: 0.829
- molecule: "CN1CC(=O)N2[C@H](c3ccc4c(c3)OCO4)c3[nH]c4ccccc4c3C[C@@H]2C1=O"
  observation_type: "nuclear count per well"
  result_number: -0.7
- molecule: "C#C[C@]1(O)CC[C@H]2[C@@H]3CCc4cc(O)ccc4[C@H]3CC[C@@]21C [Ethinyl Estradiol]"
  observation_type: "nuclear count per well"
  result_number: -0.137
- molecule: "O=C(O)c1cc(-c2ccc(F)cc2F)ccc1O"
  observation_type: "nuclear count per well"
  result_number: -0.935
- molecule: "CN(C/C=C/c1ccccc1)Cc1cccc2ccccc12"
  observation_type: "nuclear count per well"
  result_number: -0.367
- molecule: "CC/C(=C(\\c1ccccc1)c1ccc(OCCN(C)C)cc1)c1ccccc1 [Tamoxifen citrate]"
  observation_type: "nuclear count per well"
  result_number: -0.415
- molecule: "c1ccc2[nH]c(-c3cscn3)nc2c1"
  observation_type: "nuclear count per well"
  result_number: 0.317
- molecule: "NCCc1c[nH]cn1"
  observation_type: "nuclear count per well"
  result_number: 0.741
- molecule: "CC(C)(Oc1ccc(CCNC(=O)c2ccc(Cl)cc2)cc1)C(=O)O [bezafibrate]"
  observation_type: "nuclear count per well"
  result_number: -0.397
- molecule: "Cc1nn(C)c2nc(NNC(=O)Nc3cc(Cl)nc(Cl)c3)cc(C(C)C)c12"
  observation_type: "nuclear count per well"
  result_number: -2

* * *

- Tested on: HeLa
- measurement_notes: MALAT1 nuclear FISH intensity, robust Z-score vs DMSO; higher = more nuclear MALAT1 lncRNA, active = -3 or less
- cond: 10 µM; 6 h
Where a name gives a salt, the structure may show the parent alone.

- molecule: "Cc1ccc(O)c([C@H](CCN(C(C)C)C(C)C)c2ccccc2)c1 [Tolterodine L-tartrate]"
  measurement_target: "HeLa"
  MALAT1 nuclear FISH intensity: -0.93
- molecule: "Cc1coc2c1C(=O)C(=O)c1c-2ccc2c1CCCC2(C)C"
  measurement_target: "HeLa"
  MALAT1 nuclear FISH intensity: -0.607
- molecule: "CN(C)/N=N/c1[nH]cnc1C(N)=O"
  measurement_target: "HeLa"
  MALAT1 nuclear FISH intensity: 0.246
- molecule: "CN(C)CCc1c[nH]c2ccc(C[C@H]3COC(=O)N3)cc12"
  measurement_target: "HeLa"
  MALAT1 nuclear FISH intensity: -0.715
- molecule: "NC(=NCc1ccc(Cl)cc1Cl)NC(=O)c1nc(Cl)c(N)nc1N"
  measurement_target: "HeLa"
  MALAT1 nuclear FISH intensity: 2.09
- molecule: "Oc1nc(-c2ccc(C(F)(F)F)cc2)nc2c1CSCC2"
  measurement_target: "HeLa"
  MALAT1 nuclear FISH intensity: 1.24
- molecule: "CCCCCCCCCCCCCCCCOCC(CO)OC (stereo not given)"
  measurement_target: "HeLa"
  MALAT1 nuclear FISH intensity: 0.28
- molecule: "CCCCC[C@H](O)/C=C/[C@H]1[C@H](O)CC(=O)[C@@H]1C/C=C\\CCCC(=O)O [Prostaglandin E2]"
  measurement_target: "HeLa"
  MALAT1 nuclear FISH intensity: -0.672
- molecule: "CC(C)Nc1cccnc1N1CCN(C(=O)c2cc3cc(NS(C)(=O)=O)ccc3[nH]2)CC1 [Delavirdine Mesylate]"
  measurement_target: "HeLa"
  MALAT1 nuclear FISH intensity: 1.25
- molecule: "O=c1ccc2ccccc2o1"
  measurement_target: "HeLa"
  MALAT1 nuclear FISH intensity: -1.8
- molecule: "O=c1cc(-c2cccc3c2Sc2ccccc2S3)oc(N2CCOCC2)c1"
  measurement_target: "HeLa"
  MALAT1 nuclear FISH intensity: -0.163
- molecule: "CCC[C@@H]1C[C@@H](C(=O)N[C@@H]([C@H]2O[C@H](SC)[C@H](O)[C@@H](O)[C@H]2O)[C@@H](C)O)N(C)C1"
  measurement_target: "HeLa"
  MALAT1 nuclear FISH intensity: -0.0208
- molecule: "CC(C)C[C@@H](N)C(=O)O"
  measurement_target: "HeLa"
  MALAT1 nuclear FISH intensity: 0.514
- molecule: "Cc1c2oc3c(C)ccc(C(=O)N[C@@H]4C(=O)N[C@H](C(C)C)C(=O)N5CCC[C@H]5C(=O)N(C)CC(=O)N(C)[C@@H](C(C)C)C(=O)O[C@@H]4C)c3nc-2c(C(=O)N[C@@H]2C(=O)N[C@H](C(C)C)C(=O)N3CCC[C@H]3C(=O)N(C)CC(=O)N(C)[C@@H](C(C)C)C(=O)O[C@@H]2C)c(N)c1=O"
  measurement_target: "HeLa"
  MALAT1 nuclear FISH intensity: -6.35
- molecule: "COc1cc(C(C)=O)ccc1OCCCN1CCC(c2noc3cc(F)ccc23)CC1"
  measurement_target: "HeLa"
  MALAT1 nuclear FISH intensity: -0.486
- molecule: "C=C1O[C@@](CO)(n2cnc3c(N)ncnc32)[C@H](O)[C@@H]1O"
  measurement_target: "HeLa"
  MALAT1 nuclear FISH intensity: 0.453
- molecule: "C#C[C@]1(O)CC[C@H]2[C@@H]3CCC4=CC(=O)CC[C@@H]4[C@H]3CC[C@@]21C"
  measurement_target: "HeLa"
  MALAT1 nuclear FISH intensity: 0.639
- molecule: "CCCCCCCCCCCCCCCCOCC(COP(=O)([O-])OCC[N+](C)(C)C)OC (stereo not given)"
  measurement_target: "HeLa"
  MALAT1 nuclear FISH intensity: 0.382
- molecule: "CC/C=C\\C/C=C\\C/C=C\\C/C=C\\C/C=C\\CCCCCC(=O)O"
  measurement_target: "HeLa"
  MALAT1 nuclear FISH intensity: -0.155
- molecule: "C=C1/C(=C\\C=C2/CCC[C@]3(C)[C@@H]([C@H](C)CCCC(C)(C)O)CC[C@@H]23)C[C@@H](O)C[C@@H]1O [1?,25-Dihydroxyvitamin D3]"
  measurement_target: "HeLa"
  MALAT1 nuclear FISH intensity: -0.354
- molecule: "O=P(O)(O)C(Sc1ccc(Cl)cc1)P(=O)(O)O [Tiludronate Disodium]"
  measurement_target: "HeLa"
  MALAT1 nuclear FISH intensity: 1.17
- molecule: "CCCC(CCC)C(=O)O [Sodium Valproate]"
  measurement_target: "HeLa"
  MALAT1 nuclear FISH intensity: -0.236
- molecule: "O=C(CCCN1CC=C(n2c(=O)[nH]c3ccccc32)CC1)c1ccc(F)cc1"
  measurement_target: "HeLa"
  MALAT1 nuclear FISH intensity: 2.02
- molecule: "CC=CC(=O)N(CC)c1ccccc1C"
  measurement_target: "HeLa"
  MALAT1 nuclear FISH intensity: -0.428
- molecule: "CN(C)CCc1c[nH]c2ccc(CS(=O)(=O)N3CCCC3)cc12"
  measurement_target: "HeLa"
  MALAT1 nuclear FISH intensity: -1.86
- molecule: "O=C(O)c1cc(N(Cc2ccccc2O)Cc2cc(O)ccc2O)ccc1O"
  measurement_target: "HeLa"
  MALAT1 nuclear FISH intensity: -1.08
- molecule: "CC(C)CCN1c2nc(Nc3cc(F)c(O)c(F)c3)ncc2N(C)C(=O)C1C (stereo not given)"
  measurement_target: "HeLa"
  MALAT1 nuclear FISH intensity: 0.586
- molecule: "COc1ccccc1OCC(O)CN1CCN(CC(=O)Nc2c(C)cccc2C)CC1 (stereo not given)"
  measurement_target: "HeLa"
  MALAT1 nuclear FISH intensity: -0.961
- molecule: "OC[C@H]1NC[C@H](O)[C@@H](O)[C@@H]1O"
  measurement_target: "HeLa"
  MALAT1 nuclear FISH intensity: -0.641
- molecule: "O=C1NC(=O)/C(=C\\c2ccc3nccnc3c2)S1"
  measurement_target: "HeLa"
  MALAT1 nuclear FISH intensity: -1.19
- molecule: "CCOC(=O)[C@H](CCc1ccccc1)N[C@@H](C)C(=O)N1CCC[C@H]1C(=O)O"
  measurement_target: "HeLa"
  MALAT1 nuclear FISH intensity: 0.257
- molecule: "C#C[C@]1(O)CC[C@H]2[C@@H]3CCC4=CCCC[C@@H]4[C@H]3C(=C)C[C@@]21CC"
  measurement_target: "HeLa"
  MALAT1 nuclear FISH intensity: -0.0225
- molecule: "O=C1CC2(CCCC2)CC(=O)N1CCCCN1CCN(c2ncccn2)CC1"
  measurement_target: "HeLa"
  MALAT1 nuclear FISH intensity: -0.239
- molecule: "COc1cc(/C=C/c2ccccc2)oc(=O)c1"
  measurement_target: "HeLa"
  MALAT1 nuclear FISH intensity: -2.41
- molecule: "N#C/C(=C\\c1ccc(O)c(O)c1)C(=O)NCc1ccccc1"
  measurement_target: "HeLa"
  MALAT1 nuclear FISH intensity: 1.04
